- System: HepG2
- test.details: Antiproliferative activity against human HepG2 cells measured after 48 hrs by MTT assay
- condition.summary: HepG2, 48 h
measure.name: IC50 (nM)

(I) O=C1C(=O)c2ccccc2C2=C1C(c1cc(O)ccc1F)NC(=S)N2 (stereo not given)
(II) COc1ccc2c(c1)C1=C(C(=O)C2=O)C(c2cc(C)cc(O)c2)NC(=S)N1 (stereo not given)
Q. Please compare: I and II . Report which one has the smaller IC50 value. Write down the label attached to your selection.
A. I

---

Entries and their selectivity ratio values follow.
- test.details: in vitro
- condition.summary: human, L02 cells and A549 cells
- Description: Selectivity index, ratio of IC50 for human L02 cells to IC50 for human A549 cells
No unit in the answer, only the number.

Consider the reported selectivity ratio for these molecules:
O=C1C(=O)c2ccccc2C2=C1C(c1cccc(O)c1Cl)NC(=S)N2 (stereo unspecified)    1.61
COc1ccc2c(c1)C(=O)C(=O)C1=C2NC(=S)NC1c1cccc(O)c1 (stereo unspecified)    29.1

Q. Which selectivity ratio is listed for O=C1C(=O)c2ccc(Cl)cc2C2=C1C(c1cccc(O)c1)NC(=S)N2 (stereo unspecified) ?
A. 1.77

Q. Param item: "CC1(C)CCC2=C(O1)c1ccccc1C(=O)C2=O"
A. 1.37

Q. Here is the next molecule: Cc1cc(O)cc(C2NC(=S)NC3=C2C(=O)C(=O)c2ccccc23)c1 (stereo unspecified)
A. 17.2

Q. Another: O=C1C(=O)c2cccc(Br)c2C2=C1C(c1cccc(O)c1)NC(=S)N2 (stereo unspecified)
A. 0.86

Q. Same read-out for O=C1C(=O)c2ccccc2C2=C1C(c1cc(O)cc(Br)c1)NC(=S)N2 (stereo unspecified) ?
A. 1.26
